In this section we review reported pIC50 values for a set of compounds.
measured.on: Matrix metalloproteinase-9 (Homo sapiens)
Sequence (P14780 whole entry): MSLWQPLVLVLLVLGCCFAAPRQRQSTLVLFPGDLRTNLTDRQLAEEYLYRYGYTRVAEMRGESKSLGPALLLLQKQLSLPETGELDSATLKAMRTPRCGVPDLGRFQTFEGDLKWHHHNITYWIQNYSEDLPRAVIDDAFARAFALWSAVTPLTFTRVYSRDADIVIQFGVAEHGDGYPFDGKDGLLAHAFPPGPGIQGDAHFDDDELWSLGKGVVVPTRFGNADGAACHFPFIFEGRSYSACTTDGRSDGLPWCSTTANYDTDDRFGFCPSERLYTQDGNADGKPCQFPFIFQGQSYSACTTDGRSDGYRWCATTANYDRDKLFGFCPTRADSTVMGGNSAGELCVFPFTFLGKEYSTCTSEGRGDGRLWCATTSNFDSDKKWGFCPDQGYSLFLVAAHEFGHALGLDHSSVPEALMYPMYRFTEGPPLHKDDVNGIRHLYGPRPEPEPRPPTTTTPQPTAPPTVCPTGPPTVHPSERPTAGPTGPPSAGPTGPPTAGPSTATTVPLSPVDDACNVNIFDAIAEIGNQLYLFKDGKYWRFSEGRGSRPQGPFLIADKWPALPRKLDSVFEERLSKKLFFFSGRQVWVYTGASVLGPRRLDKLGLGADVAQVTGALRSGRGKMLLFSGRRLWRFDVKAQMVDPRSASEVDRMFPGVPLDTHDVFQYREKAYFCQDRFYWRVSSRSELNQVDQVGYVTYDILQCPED
Recall that pIC50 is obtained by taking minus log10 of the concentration measured in molar.

Ask: Which pIC50 is reported with Matrix metalloproteinase-9 (Homo sapiens) for this entry: COCCc1cc(COc2ccc([C@]3(N)CCN([C@H](CC(C)C)C(=O)NO)C3=O)cc2)c2ccccc2n1 ?
Reply: 5.92

Ask: Which pIC50 is reported with Matrix metalloproteinase-9 (Homo sapiens) for this entry: COCc1cc(COc2ccc([C@]3(N)CCN([C@H](CC(C)C)C(=O)NO)C3=O)cc2)c2ccccc2n1 ?
Reply: 5.94

Ask: Which pIC50 is reported with Matrix metalloproteinase-9 (Homo sapiens) for this entry: Cc1cc(COc2ccc([C@]3(N)CCN([C@H](CC(C)C)C(=O)NO)C3=O)cc2)c2ccccc2n1 ?
Reply: 6.41
